// data source = paper PMC9090415

What % inhibition T4 90' 2.5 was measured for each of the following?
- System tested: bacteriophage T4 DNA polymerase (Enterobacteria phage T4)
- Construct: made in house
- Sequence (P04415 whole entry): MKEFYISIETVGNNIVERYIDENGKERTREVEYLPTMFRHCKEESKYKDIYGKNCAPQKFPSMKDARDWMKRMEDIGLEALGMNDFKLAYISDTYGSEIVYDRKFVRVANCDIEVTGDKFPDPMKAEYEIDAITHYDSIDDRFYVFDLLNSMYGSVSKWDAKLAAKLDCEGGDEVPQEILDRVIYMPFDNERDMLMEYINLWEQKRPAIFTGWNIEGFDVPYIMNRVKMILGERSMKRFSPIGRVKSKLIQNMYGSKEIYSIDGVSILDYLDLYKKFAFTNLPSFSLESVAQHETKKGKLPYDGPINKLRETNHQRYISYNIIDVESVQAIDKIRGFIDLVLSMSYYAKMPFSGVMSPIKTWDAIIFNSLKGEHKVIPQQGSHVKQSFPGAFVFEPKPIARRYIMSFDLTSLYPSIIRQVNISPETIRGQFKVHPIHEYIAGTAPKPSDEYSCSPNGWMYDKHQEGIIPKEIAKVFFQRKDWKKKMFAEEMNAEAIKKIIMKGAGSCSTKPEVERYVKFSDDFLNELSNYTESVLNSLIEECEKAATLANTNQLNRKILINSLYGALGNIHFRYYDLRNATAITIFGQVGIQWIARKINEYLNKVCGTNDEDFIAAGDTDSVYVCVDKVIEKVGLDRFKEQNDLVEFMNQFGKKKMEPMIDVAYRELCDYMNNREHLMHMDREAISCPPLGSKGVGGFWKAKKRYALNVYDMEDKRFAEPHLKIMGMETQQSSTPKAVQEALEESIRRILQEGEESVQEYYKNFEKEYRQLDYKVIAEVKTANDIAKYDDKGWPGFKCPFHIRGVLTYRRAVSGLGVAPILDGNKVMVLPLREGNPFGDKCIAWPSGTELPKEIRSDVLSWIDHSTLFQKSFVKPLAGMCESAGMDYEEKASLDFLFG
- Test protocol: Counter-screen against bacteriophage T4 DNA polymerase
- Assay type: biochemical
- Conditions used: DRC-2; read at 90'; concentration 2.5
- Protocol: Codon-optimized, exonuclease-deficient Pf-apPOL was overexpressed in E. coli BL21 (DE3) and purified as described. The protein was dialysed against two, 1-liter changes of 20 mM Tris-HCl (pH 8.0), 400 mM NaCl, and 20% glycerol. […] Each compound was tested in a dose-response format to determine IC50 values. […] T4 DNA polymerase can be produced in large quantities, and is in the same family (B-family) as the replicative human DNA polymerases (α, δ, and ε)[20].
Could you give me the number in %? Just the number is fine.

## Input Dear colleague, please send me the reported % inhibition T4 90' 2.5 for COc1ccccc1CC(=O)N1CCc2c(nc3cc(-c4ccccc4Cl)[nH]n3c2=O)C1 when you can.
## Output -4

## Input Dear colleague, please send me the reported % inhibition T4 90' 2.5 for COc1ccc(C2CC(c3ccc(Cl)cc3Cl)Nc3nc(N)nn32)cc1OC (stereo not drawn) when you can.
## Output 2

## Input Dear colleague, please send me the reported % inhibition T4 90' 2.5 for COc1ccc(/C=C/c2cc(C(=O)O)c3ccccc3n2)cc1 when you can.
## Output 3
